Measured values drawn from patent US7462600B2 for this set.

System: Streptococcus pneumoniae 1175
Format: cell-based
testParameters: Streptococcus pneumoniae 1175; microtiter broth dilution
Text: The assay described herein includes a panel of bacterial strains assembled to include a variety of target pathogenic species, including representatives of macrolide resistance mechanisms that have been characterized. In many cases, both the macrolide-susceptible parent strain and the macrolide-resistant strain derived from it are available to provide a more accurate assessment of the compound's ability to circumvent the resistance mechanism. […]
measurementName: MIC S. pneumo. 1175

>>> readoutvalue("CCC1OC(=O)C(C)C(=O)C(C)C(OC2OC(C)CC(N(C)C)C2O)C(C)(OC)CC(C)C(=O)C(C)C2N(C3CN(Cc4ccc(-n5ccnc5)cc4)C3)C(=O)OC12C (stereo not drawn)")
"<0.06 µg/mL"
>>> readoutvalue("CCC1OC(=O)C(C)C(=O)C(C)C(OC2OC(C)CC(N(C)C)C2O)C(C)(OC)CC(C)C(=O)C(C)C2N(CC3CN(Cc4cccc5ncccc45)C3)C(=O)OC12C (stereo not drawn)")
"<0.06 µg/mL"
>>> readoutvalue("CCC1OC(=O)C(C)C(=O)C(C)C(OC2OC(C)CC(N(C)C)C2O)C(C)(OC)CC(C)C(=O)C(C)C2N(C3CN(Cc4c(OC)ccc5ncccc45)C3)C(=O)OC12C (stereo not drawn)")
"<0.063 µg/mL"
